Target: Amine oxidase [flavin-containing] A (Homo sapiens)
Sequence (P21397 whole entry): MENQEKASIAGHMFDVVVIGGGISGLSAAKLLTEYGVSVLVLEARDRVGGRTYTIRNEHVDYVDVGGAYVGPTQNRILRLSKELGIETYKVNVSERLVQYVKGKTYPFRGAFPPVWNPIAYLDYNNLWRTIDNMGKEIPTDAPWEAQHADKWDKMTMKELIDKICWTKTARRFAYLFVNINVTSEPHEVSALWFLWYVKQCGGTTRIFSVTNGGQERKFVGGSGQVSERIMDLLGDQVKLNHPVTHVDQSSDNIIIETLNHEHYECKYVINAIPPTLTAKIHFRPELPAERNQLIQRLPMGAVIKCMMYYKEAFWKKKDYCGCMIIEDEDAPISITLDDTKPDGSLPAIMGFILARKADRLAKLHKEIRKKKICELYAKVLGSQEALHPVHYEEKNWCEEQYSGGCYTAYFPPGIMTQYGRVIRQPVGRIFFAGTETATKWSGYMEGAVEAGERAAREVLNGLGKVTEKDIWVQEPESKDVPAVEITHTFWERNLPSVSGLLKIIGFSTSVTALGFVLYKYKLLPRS
observable: pIC50
Please keep in mind that pIC50 is minus log10 of the molar concentration; only the number is needed.

The following molecules have reported results that may help.
In: Would you kindly share the measured pIC50 for `C#CCN[C@@H]1CCc2cc(Cl)c(OC(=O)N(C)CCC)cc21` ?
Out: 3.43

In: Would you kindly share the measured pIC50 for `C#CCN(C)Cc1ccnc2c(O)cccc12` ?
Out: 7.43

---
In: Would you kindly share the measured pIC50 for C#CCN(C)C(C)Cc1cccc(OC(=O)N(C)CCCCCC)c1 (centres undefined) ?
Out: 4.70

In: Would you kindly share the measured pIC50 for `C#CCN[C@@H]1CCc2ccc(OC(=O)N(C)CC)cc21` ?
Out: 4.07

----------
biological target: UniProt P22303
Sequence (P22303 whole entry): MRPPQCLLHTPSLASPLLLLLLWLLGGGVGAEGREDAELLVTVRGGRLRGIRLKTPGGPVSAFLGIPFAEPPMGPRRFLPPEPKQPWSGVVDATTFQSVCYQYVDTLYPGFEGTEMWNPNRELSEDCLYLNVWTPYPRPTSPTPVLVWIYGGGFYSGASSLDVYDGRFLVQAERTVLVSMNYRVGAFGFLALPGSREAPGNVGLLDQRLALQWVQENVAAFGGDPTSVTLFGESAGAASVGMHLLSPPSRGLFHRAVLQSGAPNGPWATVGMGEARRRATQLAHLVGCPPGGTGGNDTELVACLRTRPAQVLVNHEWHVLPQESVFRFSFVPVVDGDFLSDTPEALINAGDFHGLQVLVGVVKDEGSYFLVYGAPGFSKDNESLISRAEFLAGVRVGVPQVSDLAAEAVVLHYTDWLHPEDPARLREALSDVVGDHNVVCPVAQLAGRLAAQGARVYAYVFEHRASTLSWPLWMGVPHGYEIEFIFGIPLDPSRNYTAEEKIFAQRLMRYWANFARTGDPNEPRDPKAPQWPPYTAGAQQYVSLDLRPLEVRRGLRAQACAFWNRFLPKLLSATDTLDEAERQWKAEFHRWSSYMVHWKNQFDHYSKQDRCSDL
observable: IC50
Remember to follow the number with its unit.

In: Would you kindly share the measured IC50 for `O=C(CCc1c[nH]c2ccccc12)NCCCCCCCNc1c2c(nc3cc(Cl)ccc13)CCCC2` ?
Out: 9 µM

Lab note: next compound to report on.
In: Would you kindly share the measured IC50 for O=C(CCCCC1CCSS1)NCCCNc1c2c(nc3cc(Cl)ccc13)CCCC2 (configuration not stated) ?
Out: 45 µM

----------
target: Beta-secretase 1 (Homo sapiens)
Sequence (P56817 whole entry): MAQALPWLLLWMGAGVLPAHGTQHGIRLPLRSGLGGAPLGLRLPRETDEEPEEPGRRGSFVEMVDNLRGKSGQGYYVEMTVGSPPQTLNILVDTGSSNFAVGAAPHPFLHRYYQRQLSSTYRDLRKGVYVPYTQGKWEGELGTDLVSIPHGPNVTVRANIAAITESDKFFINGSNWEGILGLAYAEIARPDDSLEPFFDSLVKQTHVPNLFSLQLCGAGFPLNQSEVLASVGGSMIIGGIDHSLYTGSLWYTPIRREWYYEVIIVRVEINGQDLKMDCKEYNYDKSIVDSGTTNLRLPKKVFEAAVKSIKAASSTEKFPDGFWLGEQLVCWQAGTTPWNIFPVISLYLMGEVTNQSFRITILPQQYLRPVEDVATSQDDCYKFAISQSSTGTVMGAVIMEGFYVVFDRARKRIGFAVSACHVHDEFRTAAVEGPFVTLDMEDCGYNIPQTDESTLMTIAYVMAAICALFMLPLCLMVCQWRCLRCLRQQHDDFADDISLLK
observable: pIC50
Please keep in mind that pIC50 is minus log10 of the molar concentration; only the number is needed.

In: Would you kindly share the measured pIC50 for `CCN(CCCCCCNC1=CC(=O)C(NCCCCCCN(CC)Cc2ccccc2OC)=CC1=O)Cc1ccccc1OC` ?
Out: 6.97

----------
molecular target: UniProtKB P14416; experiment: Binding affinity to human dopaminergic D2 receptor
Sequence (P14416 whole entry): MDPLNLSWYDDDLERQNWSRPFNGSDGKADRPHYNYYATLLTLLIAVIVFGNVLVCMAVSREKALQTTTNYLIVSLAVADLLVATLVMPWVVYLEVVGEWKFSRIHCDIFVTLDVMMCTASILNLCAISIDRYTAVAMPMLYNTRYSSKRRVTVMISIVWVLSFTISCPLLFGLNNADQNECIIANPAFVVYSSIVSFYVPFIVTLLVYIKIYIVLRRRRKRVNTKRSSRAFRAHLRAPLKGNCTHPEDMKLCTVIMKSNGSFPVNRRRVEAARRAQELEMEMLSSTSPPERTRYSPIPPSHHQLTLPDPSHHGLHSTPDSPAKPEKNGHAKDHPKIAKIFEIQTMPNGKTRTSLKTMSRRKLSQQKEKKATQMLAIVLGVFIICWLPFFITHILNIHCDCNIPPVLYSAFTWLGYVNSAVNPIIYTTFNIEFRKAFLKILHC
pIC50: −log10 of the molar value.
observable: pIC50

In: Would you kindly share the measured pIC50 for `Fc1ccc(-c2cncc(CNC[C@H]3CCc4ccccc4O3)c2)cc1` ?
Out: > 8.22
